This collection of values is drawn from patent US20230331827A1.

tgt: human cMET (human, UniProt P08581 25-932)
Sequence (P08581 25-932 limits assumed): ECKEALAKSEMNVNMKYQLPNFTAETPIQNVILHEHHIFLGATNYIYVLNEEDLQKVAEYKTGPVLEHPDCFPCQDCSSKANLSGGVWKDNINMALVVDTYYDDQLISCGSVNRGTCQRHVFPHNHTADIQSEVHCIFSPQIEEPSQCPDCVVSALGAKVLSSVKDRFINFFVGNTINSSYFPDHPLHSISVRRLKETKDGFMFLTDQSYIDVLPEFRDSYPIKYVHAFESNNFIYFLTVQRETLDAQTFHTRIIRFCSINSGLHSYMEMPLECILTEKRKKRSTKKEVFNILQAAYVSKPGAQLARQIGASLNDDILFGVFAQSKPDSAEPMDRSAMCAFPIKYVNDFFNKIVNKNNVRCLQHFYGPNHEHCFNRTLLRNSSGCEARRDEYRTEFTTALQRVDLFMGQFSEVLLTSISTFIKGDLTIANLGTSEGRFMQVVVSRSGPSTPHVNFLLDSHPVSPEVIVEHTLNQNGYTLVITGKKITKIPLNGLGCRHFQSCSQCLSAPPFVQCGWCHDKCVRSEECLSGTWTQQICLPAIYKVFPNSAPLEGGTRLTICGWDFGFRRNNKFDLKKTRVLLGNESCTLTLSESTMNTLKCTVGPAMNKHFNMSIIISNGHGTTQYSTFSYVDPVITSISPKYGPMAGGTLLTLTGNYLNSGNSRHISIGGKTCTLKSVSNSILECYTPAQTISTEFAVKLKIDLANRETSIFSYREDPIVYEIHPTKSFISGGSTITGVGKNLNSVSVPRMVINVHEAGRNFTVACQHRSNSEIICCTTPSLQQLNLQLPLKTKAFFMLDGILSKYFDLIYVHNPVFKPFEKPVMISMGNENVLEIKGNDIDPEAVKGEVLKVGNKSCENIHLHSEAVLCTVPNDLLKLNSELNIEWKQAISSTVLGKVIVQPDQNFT
experimental-protocol: phage TRF on cMET
Cut-off 100000 on TRF signal, inclusive. At or above means t; below means f.

KB_A12_cMET_G10 (scFv, V domains shown) VH: EVQLVESGGGLVRPGGSLRLSCAASGFTFSSYAMSWVRQAPGKGLEWVSAISGSGGSTYYADSVKGRFTISRDNTKNSLYLQMTSLRADDTAFYYCVKDFGPGYGTGWFDYWGPGTLVTVSS VL: AVNWYQQLPGKAPKLLIYAAGRCEKHSGTGRCKQDSDCLAGCVCGPNGFCGANSGVSDRFSAAKSGTSASLAINGLRSEDEADYYCAAWDDSLNGYVFGTGTKLTVLG	f
KB_A12_cMET_F12 (scFv, V domains shown) VH: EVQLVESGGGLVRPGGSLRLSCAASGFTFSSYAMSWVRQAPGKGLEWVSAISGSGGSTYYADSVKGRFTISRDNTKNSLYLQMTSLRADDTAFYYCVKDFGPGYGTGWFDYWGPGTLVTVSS VL: AVNWYQQLPGKAPKLLIYAAGRCKAQSGSGRCKQDSDCLAGCVCGPNGFCGANSGVSDRFSAAKSGTSASLAINGLRSEDEADYYCAAWDDSLNGYVFGTGTKLTVLG	t
KB_A12_cMET_E01 (scFv, V domains shown) VH: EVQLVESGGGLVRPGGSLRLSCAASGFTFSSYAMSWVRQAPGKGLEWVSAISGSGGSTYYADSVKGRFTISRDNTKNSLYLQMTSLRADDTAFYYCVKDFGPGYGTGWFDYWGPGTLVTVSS VL: AVNWYQQLPGKAPKLLIYAAGRCNLTSGTGRCKQDSDCLAGCVCGPNGFCGANSGVSDRFSAAKSGTSASLAINGLRSEDEADYYCAAWDDSLNGYVFGTGTKLTVLG	f

input: Assess whether reported TRF signal for KB_A12_cMET_E11 (scFv, V domains shown) VH: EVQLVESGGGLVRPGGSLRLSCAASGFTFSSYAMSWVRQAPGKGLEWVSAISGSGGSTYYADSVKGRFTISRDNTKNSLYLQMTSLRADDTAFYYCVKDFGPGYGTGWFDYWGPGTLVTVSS VL: AVNWYQQLPGKAPKLLIYAAGRCAKKSGTGRCKQDSDCLAGCVCGPNGFCGANSGVSDRFSAAKSGTSASLAINGLRSEDEADYYCAAWDDSLNGYVFGTGTKLTVLG sits at 100000 or higher.
output: t
